target: Peptidyl-prolyl cis-trans isomerase FKBP1A (Homo sapiens); assay: Binding affinity to FKBP12 (unknown origin) expressed in HEK293 cells co-expressing FRB assessed as inhibition of rapamycin-induced FKBP12-FRB dimerization measured after 25 mins by nano-glo live cell reagent based luminescence assay
Sequence (P62942 whole entry): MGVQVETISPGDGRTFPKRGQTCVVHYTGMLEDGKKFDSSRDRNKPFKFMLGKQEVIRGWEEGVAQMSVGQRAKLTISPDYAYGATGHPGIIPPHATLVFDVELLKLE

{"smi": "COc1cccc(SCc2cn(CC(=O)O)nn2)c1", "value.units": "µM", "IC50": 3.32}

---

target: RyR1/FKBP12 (Homo sapiens) (UniProt P21817+P62942); experiment: Stabilization of FKBP12/RyR1 protein-protein interaction in human 8220 myoblast-derived myotubes assessed as reversal of SIN1-induced intracellular calcium leakage at 150 nM preincubated for 12 hrs followed by SIN1 stimulation and measured after 6 hrs by fura-2 AM dye based fluorescence assay relative to control; settings: Myotube, time 18.0 hrs
Active and inactive are the calls of the source. No cut-off for these calls is given here.

{"smi": "COc1cccc(SCc2cn([C@H](CC(C)C)C(=O)O)nn2)c1", "tested.system": "RyR1/FKBP12 (Homo sapiens) (UniProt P21817+P62942)", "Activity": "Active"}
{"smi": "O=C(O)[C@@H](Cc1ccc(O)cc1)n1cc(CSc2cccc(C(F)(F)F)c2)nn1", "tested.system": "RyR1/FKBP12 (Homo sapiens) (UniProt P21817+P62942)", "Activity": "Active"}
{"smi": "O=C(O)Cn1cc(CSc2ccccc2)nn1", "tested.system": "RyR1/FKBP12 (Homo sapiens) (UniProt P21817+P62942)", "Activity": "< 90%"}

---

target: RyR1/FKBP12 (Homo sapiens) (UniProt P21817+P62942); experiment: Stabilization of FKBP12/RyR1 protein-protein interaction in human 8220 myoblast-derived myotubes assessed as reversal of SIN1-induced intracellular calcium leakage at 150 nM preincubated for 12 hrs followed by SIN1 stimulation and measured after 6 hrs by fura-2 AM dye based fluorescence assay relative to control; details: Myotube, time 18.0 hrs
The source made the active and inactive calls. No cut-off for these calls is given here.
recorded.metric: Activity

{"smi": "Cc1ccc(SCCc2cn(CC(=O)O)nn2)cc1", "observed.value": "< 90%"}
{"smi": "COc1cccc(SCc2cn(C(C)(C)C(=O)O)nn2)c1", "observed.value": "< 90%"}
{"smi": "COc1ccc2c(c1)CN(C)CCS2", "observed.value": "Active"}
{"smi": "COc1cccc(SCc2cn([C@@H](Cc3ccccc3)C(=O)O)nn2)c1", "observed.value": "Active"}
{"smi": "COc1cccc(SCc2cn([C@H](Cc3ccccc3)C(=O)O)nn2)c1", "observed.value": "Active"}
{"smi": "CC(C)(C)OC(=O)NCCCC[C@@H](C(=O)O)n1cc(CSc2cccc(Cl)c2)nn1", "observed.value": "inactive"}
{"smi": "O=C(O)[C@@H](Cc1ccccc1)n1cc(CSc2cccc(C(F)(F)F)c2)nn1", "observed.value": "inactive"}
{"smi": "COc1ccc(SCc2cn(CC(=O)O)nn2)cc1", "observed.value": "< 90%"}
{"smi": "O=C(O)Cn1cc(CSc2cccc(Cl)c2)nn1", "observed.value": "inactive"}
{"smi": "COc1cccc(SCc2cn(CC(=O)O)nn2)c1", "observed.value": "< 90%"}
{"smi": "O=C(O)Cn1cc(CSc2c(F)c(F)cc(F)c2F)nn1", "observed.value": "< 90%"}
{"smi": "CCC[C@H](C(=O)O)n1cc(CSc2cccc(OC)c2)nn1", "observed.value": "Active"}
